# Tested on: TAB113
# assay-method-text: qHTS profiling for inhibitors of Plasmodium falciparum proliferation (AID 504749); also: nearly all actives have a fitted effect of over 60% in size
# particulars: P. falciparum in erythrocytes, SYBR Green DNA, 72 h; series mostly up to 28.7 µM
Inconclusive results are not listed. Active and inactive are the calls of the source. Calls follow the shape of the dose curve; as a rule, active = well fitted inhibition curve with a large enough effect; inconclusive = small, poorly fitted or top-dose-only effect; inactive = flat fitted curve, though single readings scatter.
recorded-endpoint: outcome

>>> print(df.to_string())
                                   molecule  recorded_endpoint  reported_result
0        C[C@H](NC(C)(C)C)C(=O)c1cccc(Cl)c1            outcome         inactive
1  CC(=O)O[C@H]1CC[C@@]2(C)C(=CC[C@@H]3[C@H]2CC[C@]2(C)C(=O)CC[C@H]32)C1            outcome         inactive
2                   CCNC[C@H](O)c1cccc(O)c1            outcome         inactive
3  COc1cc2c(cc1OC)[C@@]13CCN4CC5=CCOC6CC(=O)N2C1[C@H]6[C@@H]5C[C@@H]43 (some centres undefined)            outcome         inactive

###

# assay-method-text: Cell Viability - Renal Proximal Tubule (AID 545);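 also: cells exposed to compound for 40 hours; nearly all actives have a fitted effect of over 40% in size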
# particulars: renal proximal tubule cells viability; at 91.7 µM (top of the series), primary cells of rat origin unless noted
Results filed as inconclusive are left out. Active and inactive are the calls of the source. Calls come from the whole dose curve; as a rule, active = well fitted cell-killing curve with a large enough effect; inconclusive = small, poorly fitted or top-dose-only effect; inactive = flat fitted curve, though single readings scatter.
Your response should consist of one outcome taken from yes (active), no (inactive)

Look up the recorded call for `Nc1ccc(Br)cc1` in this test.
no

Now give it for `Brc1ccccc1` too.
no

Again, but for `Nc1ccccc1Cl`
no

# iterate: `ClCBr`
no

Could you do the same for `c1ccc(-c2ccccc2)cc1` , please?
no

Note, next up: `C[C@H]1CCCC(=O)CCC/C=C/c2cc(O)cc(O)c2C(=O)O1`
no

Also need `Clc1nc(Cl)nc(Nc2ccccc2Cl)n1` , thanks.
no

Can you check `CCOc1ccc(N)cc1` next?
no

Another compound: `Cc1cccc(C#N)c1`
no

Next compound: `CC(C)(c1ccccc1)c1ccc(O)cc1`
no

Same question, `Cc1ccc([N+](=O)[O-])cc1C` this time
no

Would you mind doing `COC(=O)NC(=S)Nc1ccccc1NC(=S)NC(=O)OC` as well?
no

Again, but for `Oc1ccc(Cl)cc1Cl`
no

Continue with `CCCCOC(=O)c1ccccc1C(=O)OCCCC`
no

What do you have for `C/C=C/c1ccc2c(c1)OCO2` ?
no

Also check `CNC(=O)O/N=C/C(C)(C)SC`
no

Do the same for `C=CCOC(=O)c1ccccc1N` please
no

Ok, now OCC(Br)CBr (stereo not drawn)
no

Similarly, `Nc1c(Cl)c(Cl)nc(C(=O)O)c1Cl` ?
no

// query: `Clc1cccc(C(Cl)(Cl)Cl)n1`
no

# repeat for COC1=CC(=O)OC(CCc2ccccc2)C1 (stereo not drawn)
no

Please give the result for `C=CC(=C)C` too.
no

Then what about the compound `CCCCCCCCCc1ccc(O)cc1` ?
yes

Now the same for `C=CC(C)=O`
no

How about `CCCC(=O)Cl` ?
no

What about this compound? `CCOCN(C(=O)CCl)c1c(C)cccc1CC`
yes

And `Clc1ccc2ccccc2c1` ?
no

Try this compound too: `BrCCBr`
no
